Measured neutralization IC50, listed per entry for reference.
target: HIV-1 Env of pseudovirus RHPA4259.7 (HIV-1); experiment: cell-based or functional assay
VALUE_TYPE: neutralization IC50

binder="MS-74 (antibody, V domains shown) VH: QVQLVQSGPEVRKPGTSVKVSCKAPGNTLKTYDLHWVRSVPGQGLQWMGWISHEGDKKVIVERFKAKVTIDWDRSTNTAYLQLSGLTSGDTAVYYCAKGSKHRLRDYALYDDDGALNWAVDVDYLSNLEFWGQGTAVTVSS VL: DFVLTQSPHSLSVTPGESASISCKSSHSLIHGDRNNYLAWYVQKPGRSPQLLIYLASSRASGVPDRFSGSGSDKDFTLKISRVETEDVGVYYCMQGRESPWTFGQGTKVDIKR" recorded_value="0.132 µg/mL"
binder="MS-91 (antibody, V domains shown) VH: QVQLVQSGPEVRKPGTSVKVSCKASGYTLKTYDLHWVRSVPGQGLQWMGWISHEGDKKVIVERFKAKVTIDWDRSTNTAYLQLSGLTSGDTAVYYCAKGSKHRLRDYALYDDDGALNWAVDVDYLSNLEFWGQGTAVTVSS VL: DFVLTQSPLSLSVTPGESASISCKSSHSLIHGDRNNYLAWYVQKPGRSPQLLIYLASSRASGVPDRFSGSGSDTDFTLKISRVETEDVGTYYCMQGRESPWTFGQGTKVDIKR" recorded_value="0.267 µg/mL"
binder="MS-76 (antibody, V domains shown) VH: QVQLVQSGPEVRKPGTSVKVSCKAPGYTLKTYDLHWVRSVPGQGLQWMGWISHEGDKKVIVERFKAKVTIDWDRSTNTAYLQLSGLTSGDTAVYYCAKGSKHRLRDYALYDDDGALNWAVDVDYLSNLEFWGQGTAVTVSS VL: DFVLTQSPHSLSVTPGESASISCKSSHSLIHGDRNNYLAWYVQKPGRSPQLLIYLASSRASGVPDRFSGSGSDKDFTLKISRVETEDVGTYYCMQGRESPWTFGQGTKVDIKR" recorded_value="0.242 µg/mL"
binder="MS-88 (antibody, V domains shown) VH: QVQLVQSGPEVRKPGTSVKVSCKASGYTFKTYDLHWVRSVPGQGLQWMGWISHEGDKKVIVERFKAKVTITRDRSTNTAYLQLSGLTSGDTAVYYCAKGSKHRLRDYALYDDDGALNWAVDVDYLSNLEFWGQGTAVTVSS VL: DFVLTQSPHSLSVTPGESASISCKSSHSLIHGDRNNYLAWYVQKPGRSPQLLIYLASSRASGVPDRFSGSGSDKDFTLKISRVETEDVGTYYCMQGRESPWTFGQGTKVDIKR" recorded_value="0.504 µg/mL"
binder="MS-83 (antibody, V domains shown) VH: QVQLVQSGPEVRKPGTSVKVSCKAPGNTLKTYDLHWVRSVPGQGLQWMGWISHEGDKKVIVERFKAKVTIDWDRSTNTAYLQLSGLTSGDTAVYYCAKGSKHRLRDYALYDDEGALNWAVDVDYLSNLEFWGQGTAVTVSS VL: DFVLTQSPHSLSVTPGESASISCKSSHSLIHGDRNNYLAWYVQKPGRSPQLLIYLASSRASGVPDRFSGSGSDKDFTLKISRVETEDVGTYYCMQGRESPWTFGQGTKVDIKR" recorded_value="0.15 µg/mL"

Where do the numbers come from? From patent US20220025021A1.
